# Tested on: T1, human DLL4, full length, overexpressed on cells (human, UniProt Q9NR61 27-685)
# T1 construct: CHO cells in FMAT, HEK293 cells in the reporter assay; also called hDLL4; CHO-hDLL4
# Experimental details: FMAT, hNotch1-Fc on CHO-hDLL4, +25 uM HSA
Listing: IC50 of selected binders
Express your answer in nM, writing the number without its unit.

Worked cases, answers included:
Qu. What value of IC50 has been reported for the following binder? VEGFDLLBII012 (bispecific antibody, PEGylated at the Cys at position 15 of the 35 Gly-Ser linker, VEGFBII23B04 - 35GS(Cys15) - DLLBII136C07) EVQLVESGGGLVQTGDSLRLSCEVSGRTFSSYSMGWFRQAQGKEREFVVAISKGGYKYDSVSLEGRFTISKDNAKNTVYLQINSLKPEDTAVYYCASSRAYGSSRLRLADTYEYWGQGTQVTVSSGGGGSGGGGSGGGGCGGGGSGGGGSGGGGSGGGGSEVQLVESGGGLVQPGGSLRLSCAASGFTFGSYDMSWVRRSPGKGPEWVSSINSGGGSTYYADYVKGRFTISRDNAKNTLYLQMNSLKPEDTAVYYCAADRYIWARQGEYWGAYEYDYWGQGTQVTVSS
Ans. 41.5

Qu. Can you handle VEGFDLLBII013 (bispecific antibody, PEGylated at the Cys at position 15 of the 35 Gly-Ser linker, VEGFBII23B04 - 35GS(Cys15) - DLLBII129B05) EVQLVESGGGLVQTGDSLRLSCEVSGRTFSSYSMGWFRQAQGKEREFVVAISKGGYKYDSVSLEGRFTISKDNAKNTVYLQINSLKPEDTAVYYCASSRAYGSSRLRLADTYEYWGQGTQVTVSSGGGGSGGGGSGGGGCGGGGSGGGGSGGGGSGGGGSEVQLVESGGGLVQAGGSLRLSCAASGRTFSSYAMAWYRQAPGKEREYVAAIRWSGGTAYYADSVQGRFTISRDNAKNTVYLQMNSLKPEDTAVYYCANRAPDTRLAPYEYDHWGQGTQVTVSS next?
Ans. 12.4

Qu. Can you handle DLLBII129B05 (VHH, not shown: small tags and cut ends) VHH: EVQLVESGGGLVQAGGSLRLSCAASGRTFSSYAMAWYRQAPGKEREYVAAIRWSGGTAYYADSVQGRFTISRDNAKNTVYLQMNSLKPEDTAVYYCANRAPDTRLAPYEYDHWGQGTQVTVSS next?
Ans. 4.3

Others:
Qu. What value of IC50 has been reported for the following binder? DLLBII136C07 (VHH, not shown: small tags and cut ends) VHH: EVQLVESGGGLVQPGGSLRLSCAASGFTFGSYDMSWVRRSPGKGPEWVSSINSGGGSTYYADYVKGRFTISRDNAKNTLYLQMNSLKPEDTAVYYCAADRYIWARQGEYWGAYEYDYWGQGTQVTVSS
Ans. 7.1
